# assay_explanation: Odor of permanently waved hair strands, leave-on method (base: conditioner)
# condition_set: test substance 0.01 wt. %, Day 4, dry, pH 4-5, each symbol = one test strand
quantity_kind: Odor rating vs blank, Day 4, pH 4-5

Here is how some compounds turned out for Odor rating vs blank, Day 4, pH 4-5.
compound: O=CC(=O)[O-].O=CC(=O)[O-].[Zn+2] [Zn glyoxylate]
Odor rating vs blank, Day 4, pH 4-5: + + ∘
//
compound: CC(=O)C(=O)[O-].[Na+] [Na pyruvate]
Odor rating vs blank, Day 4, pH 4-5: + + ∘
//
compound: CC(=O)C(=O)[O-].CC(=O)C(=O)[O-].[Zn+2] [Zn pyruvate]
Odor rating vs blank, Day 4, pH 4-5: + + +
//
compound: O=C([O-])CC(O)(CC(=O)[O-])C(=O)[O-].O=C([O-])CC(O)(CC(=O)[O-])C(=O)[O-].[Zn+2].[Zn+2].[Zn+2] [Trizinc dicitrate, trizinc dicitrate]
Odor rating vs blank, Day 4, pH 4-5: + + +
//
compound: CC(=O)CCC(=O)[O-].[Na+] [Na levulinate]
Odor rating vs blank, Day 4, pH 4-5: + + +

IN: Can you look up the measured Odor rating vs blank, Day 4, pH 4-5 of O=CC(=O)[O-].[Na+] [Na glyoxylate] for me?
OUT: + ∘ +

Each recorded value in this set is attributed to patent US20080299062A1.
